From: patent US20150368338A1

EXPERIMENTAL_TARGET: T1, IFN-αC (human, UniProt P01566 24-189)
T1 construct: also called IFN-α10; alpha C
ASSAY_SUMMARY: ProteOn, one antigen concentration
ASSAY_READOUT: pKd
Keep in mind that pKd stands for -log10 of concentration in molar terms.

Ask | Look up and state reported pKd for IFWM3311 (antibody, V domains shown, VH IFWH591, VL IFWL1009; converted mAb; also called IFWB3046) VH: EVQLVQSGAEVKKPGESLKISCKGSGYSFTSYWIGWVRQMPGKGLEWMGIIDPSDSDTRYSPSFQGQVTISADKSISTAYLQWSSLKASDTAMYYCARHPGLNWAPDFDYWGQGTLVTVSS VL: DIQMTQSPSSLSASVGDRVTITCRASQSIDDFLNWYQQKPGKAPKLLIYFASSLQSGVPSRFSGSGSGTDFTLTISSLQPEDFATYYCQQSHTLPLTFGQGTKVEIK
Reply | 10.44
